Some molecules, each annotated with its measured growth at 100 µM.
Tested on: G-361
Assay: Cytotoxicity against Homo sapiens (human) G361 cells assessed as cell growth at 10^-4 M by SRB assay relative to control
Format: functional
Conditions: read-out: Activity

compound_string | target | growth at 100 µM (%)
CCN(CC)c1nc(C)nc2c1cnn2-c1ccccc1 | G-361 | 61.8
ClCc1nc(Cl)c2cnn(-c3ccccc3)c2n1 | G-361 | -59.3
CCNc1nc(C)nc2c1cnn2-c1ccccc1 | G-361 | 29.2
Cc1nc(Nc2ccccc2)c2cnn(-c3ccccc3)c2n1 | G-361 | 65.6

====

Some compounds, each annotated with its measured zone of inhibition at 10 µg/mL.
System: Bacillus subtilis
Experiment: Antibacterial activity against Bacillus subtilis NCIM 2545 at 10 ug/ml after 24 hr by agar diffusion method
Type: functional
Settings: NCIM 2545, 24 h, read-out: IZ

compound_string | zone of inhibition at 10 µg/mL, mm
CC1(C)S[C@@H]2[C@H](NC(=O)[C@H](N)c3ccc(O)cc3)C(=O)N2[C@H]1C(=O)O | 16.3
CCCCNc1nc(C(C)C)nc2c1cnn2-c1ccccc1 | 0
CCCCNc1nc(C)nc2c1cnn2-c1ccccc1 | 0
CC(C)c1nc(N2CCOCC2)c2cnn(-c3ccccc3)c2n1 | 11.3

====

System: G-361
Experiment: Cytotoxicity against Homo sapiens (human) G361 cells by SRB assay
Format: functional
Some molecules, each annotated with its measured TGI.

compound_string | TGI
CCCCNc1nc(C)nc2c1cnn2-c1ccccc1 | > 100 µM
Cc1nc(NCc2ccco2)c2cnn(-c3ccccc3)c2n1 | > 100 µM
CCc1nc(NCc2ccco2)c2cnn(-c3ccccc3)c2n1 | 32 µM
CCc1nc(N2CCOCC2)c2cnn(-c3ccccc3)c2n1 | > 100 µM
CCNc1nc(C)nc2c1cnn2-c1ccccc1 | > 100 µM
CCCNc1ncnc2c1cnn2-c1ccccc1 | > 100 µM
CCN(CC)c1nc(C)nc2c1cnn2-c1ccccc1 | > 100 µM
CCCNc1nc(CC)nc2c1cnn2-c1ccccc1 | 37 µM
ClCc1nc(Cl)c2cnn(-c3ccccc3)c2n1 | 33.2 µM
c1ccc(NCc2nc(Nc3ccccc3)c3cnn(-c4ccccc4)c3n2)cc1 | > 100 µM
Cc1nc(Nc2ccccc2)c2cnn(-c3ccccc3)c2n1 | > 100 µM
CCCCNc1nc(CC)nc2c1cnn2-c1ccccc1 | 32 µM

====

Some compounds, each annotated with its measured log10 zone of inhibition at 20 µg/mL.
Test system: Staphylococcus aureus
Experiment: Antibacterial activity against Staphylococcus aureus NCIM 5021 at 20 ug/ml after 24 hr by agar diffusion method
Format: functional
Details: NCIM 5021, 24 h, read-out: IZ
measurement_label: log10 zone of inhibition at 20 µg/mL (log10 of the value in mm)

compound | quantitative_readout
Cc1nc(NCc2ccco2)c2cnn(-c3ccccc3)c2n1 | 1.10
Cc1nc(N2CCOCC2)c2cnn(-c3ccccc3)c2n1 | 1.12
COc1ccccc1Nc1nc(C)nc2c1cnn2-c1ccccc1 | 1.12
c1ccc(-n2ncc3c(N4CCOCC4)nc(CN4CCOCC4)nc32)cc1 | 1.13
Cc1nc(Nc2ccccc2)c2cnn(-c3ccccc3)c2n1 | 1.13
CCCNc1nc(C)nc2c1cnn2-c1ccccc1 | 1.13
CCc1nc(Nc2ccccc2)c2cnn(-c3ccccc3)c2n1 | 1.13
CCCNc1nc(CC)nc2c1cnn2-c1ccccc1 | 1.12
CCN(CC)c1nc(C)nc2c1cnn2-c1ccccc1 | 1.14
CCCNCc1nc(NCCC)c2cnn(-c3ccccc3)c2n1 | 1.12
CC(C)c1nc(N2CCOCC2)c2cnn(-c3ccccc3)c2n1 | 1.15
CC1(C)S[C@@H]2[C@H](NC(=O)[C@H](N)c3ccc(O)cc3)C(=O)N2[C@H]1C(=O)O [AMOXICILLIN] | 1.24
CCCNc1ncnc2c1cnn2-c1ccccc1 | 1.10
CC(C)NCc1nc(NC(C)C)c2cnn(-c3ccccc3)c2n1 | 0.11
c1ccc(-n2ncc3c(N4CCOCC4)ncnc32)cc1 | 1.13
Cc1nc(NC(C)C)c2cnn(-c3ccccc3)c2n1 | 1.12
CCCCNc1nc(CC)nc2c1cnn2-c1ccccc1 | 1.12
c1ccc(-n2ncc3c(NCc4ccco4)ncnc32)cc1 | 1.11
CC(C)c1nc(Nc2ccccc2)c2cnn(-c3ccccc3)c2n1 | 1.12
CCc1nc(NCc2ccco2)c2cnn(-c3ccccc3)c2n1 | 1.12
Cc1nc(NCc2ccccc2)c2cnn(-c3ccccc3)c2n1 | 1.12
CCCCNc1ncnc2c1cnn2-c1ccccc1 | 1.12
CC(C)Nc1ncnc2c1cnn2-c1ccccc1 | 1.13
c1ccc(NCc2nc(Nc3ccccc3)c3cnn(-c4ccccc4)c3n2)cc1 | 1.12
CCc1nc(N2CCOCC2)c2cnn(-c3ccccc3)c2n1 | 1.11

====

System: G-361
Assay: Cytotoxicity against Homo sapiens (human) G361 cells assessed as cell growth at 10^-4 M by SRB assay relative to control
Type: functional
Conditions: read-out: Activity
measurement_label: growth at 100 µM (%)

compound_string | measurement_label | quantitative_readout
CCCCNc1nc(CC)nc2c1cnn2-c1ccccc1 | growth at 100 µM | -62.5
CCCNc1nc(C)nc2c1cnn2-c1ccccc1 | growth at 100 µM | 25.3
Cc1nc(N2CCOCC2)c2cnn(-c3ccccc3)c2n1 | growth at 100 µM | 43.9
CC(C)c1nc(Nc2ccccc2)c2cnn(-c3ccccc3)c2n1 | growth at 100 µM | 19.2
CCCCNc1nc(C)nc2c1cnn2-c1ccccc1 | growth at 100 µM | -30
CCCCNc1ncnc2c1cnn2-c1ccccc1 | growth at 100 µM | -4.5
CCCNCc1nc(NCCC)c2cnn(-c3ccccc3)c2n1 | growth at 100 µM | 75.1

====

System: G-361
Assay: Cytotoxicity against Homo sapiens (human) G361 cells assessed as cell growth at 10^-5 M by SRB assay relative to control
Format: functional
Conditions: read-out: Activity
Some molecules, each annotated with its measured growth at 10 µM.
measurement_label: growth at 10 µM (%)

compound_string | quantitative_readout
CCc1nc(NC(C)C)c2cnn(-c3ccccc3)c2n1 | 83.3
CCCCNc1nc(C(C)C)nc2c1cnn2-c1ccccc1 | 100
Cc1nc(NCc2ccccc2)c2cnn(-c3ccccc3)c2n1 | 100
c1ccc(-n2ncc3c(NCc4ccco4)ncnc32)cc1 | 92.3
CC(C)c1nc(Nc2ccccc2)c2cnn(-c3ccccc3)c2n1 | 91.9
Cc1nc(N2CCOCC2)c2cnn(-c3ccccc3)c2n1 | 99.8
CC(C)NCc1nc(NC(C)C)c2cnn(-c3ccccc3)c2n1 | 99.7
CC(C)c1nc(N2CCOCC2)c2cnn(-c3ccccc3)c2n1 | 77.6
CCNCc1nc(NCC)c2cnn(-c3ccccc3)c2n1 | 100
c1ccc(-n2ncc3c(N4CCOCC4)nc(CN4CCOCC4)nc32)cc1 | 94.3
c1ccc(NCc2nc(Nc3ccccc3)c3cnn(-c4ccccc4)c3n2)cc1 | 99.7
CCCNc1nc(CC)nc2c1cnn2-c1ccccc1 | 84.7
CCNc1nc(C)nc2c1cnn2-c1ccccc1 | 99.6
CCCNc1nc(C)nc2c1cnn2-c1ccccc1 | 100
ClCc1nc(Cl)c2cnn(-c3ccccc3)c2n1 | 90.9
CCCNCc1nc(NCCC)c2cnn(-c3ccccc3)c2n1 | 100
CCCCNc1ncnc2c1cnn2-c1ccccc1 | 43.4

====

Tested on: G-361
Test: Cytotoxicity against Homo sapiens (human) G361 cells assessed as cell growth at 10^-4 M by SRB assay relative to control
Format: functional
Conditions: read-out: Activity
The threshold is 40%. Values of growth at 100 µM beneath it are tagged true (1); values meeting or exceeding it are tagged false (0).

compound_string | group_label
CCc1nc(NCc2ccco2)c2cnn(-c3ccccc3)c2n1 | true (1)
Cc1nc(NC(C)C)c2cnn(-c3ccccc3)c2n1 | true (1)
CC(C)NCc1nc(NC(C)C)c2cnn(-c3ccccc3)c2n1 | false (0)
CCc1nc(N2CCOCC2)c2cnn(-c3ccccc3)c2n1 | true (1)
CC(C)c1nc(N2CCOCC2)c2cnn(-c3ccccc3)c2n1 | true (1)
CCCCNc1nc(C(C)C)nc2c1cnn2-c1ccccc1 | false (0)
c1ccc(-n2ncc3c(N4CCOCC4)ncnc32)cc1 | false (0)
COc1cccc2c1C(=O)c1c(O)c3c(c(O)c1C2=O)C[C@@](O)(C(=O)CO)C[C@@H]3O[C@H]1C[C@H](N)[C@H](O)[C@H](C)O1 | true (1)
c1ccc(NCc2nc(Nc3ccccc3)c3cnn(-c4ccccc4)c3n2)cc1 | false (0)
Cc1nc(NCc2ccccc2)c2cnn(-c3ccccc3)c2n1 | false (0)

====

Tested on: Staphylococcus aureus
Experiment: Antibacterial activity against Staphylococcus aureus NCIM 5021 at 20 ug/ml after 24 hr by agar diffusion method
Type: functional
Settings: NCIM 5021, 24 h, read-out: IZ
Some compounds, each annotated with its measured zone of inhibition at 20 µg/mL.

compound_string | unit_descriptor | zone of inhibition at 20 µg/mL
CCc1nc(NC(C)C)c2cnn(-c3ccccc3)c2n1 | mm | 13.6
CCNc1nc(C)nc2c1cnn2-c1ccccc1 | mm | 13.3
CCCCNc1nc(C)nc2c1cnn2-c1ccccc1 | mm | 14.6
CCNCc1nc(NCC)c2cnn(-c3ccccc3)c2n1 | mm | 12.6
CCCCNc1nc(C(C)C)nc2c1cnn2-c1ccccc1 | mm | 14.4
